assay: soluble fraction after stress (log2 fold change); higher = more stays soluble; pooled small domains, quantitative proteomics; settings: stress: 50 degC
soluble fraction (log2) reference
Respond numerically, and do not add a unit to the figure.

Worked set:
Need soluble fraction (log2), item HMSDIPEGYMSRVQLGDEWGIHLATFDKAVIAVKEKLGTVVFIDKSNNTTAGYSPEQQTIIYDWLAEN
-1.82

Thanks! And HMESRLQAAIALRKAGEHEQSREALKILADEPALRAQALLNIAWSFDNQGHERDAEGYYLAAIE ?
-0.131

Thanks! And HMDAVSTMIENLRVKTGKSLADWVGLAKGSGADKHGAMVGWLKSEHGLTHGYANLIAHETFRSAA ?
0.0392

Thanks! And HMGVGERIKARRKEIGLSAEQVAKELGVSPATVYRYESNDIMNMRIDKLEPIAKALHTTPAYLMGWE ?
-0.0318

Further cases:
Need soluble fraction (log2), item HMNQNAMIGAHIRNLRLAKKLTLKQLSDESGLSVGFLSQLERGMSSIAIDTLARLAHILGADLSSFF
-0.763

Thanks! And HMDHAVINSEEVTIKDLSEKIGVSAAEIIKALFTEGIIKTINDKIEYEYAQYVAGMFGVELTLKL ?
0.277

Thanks! And HMADRVFGHIPGVAVGSIFPDRRSLSQTGVHRPTQAGISGNKTDGADSIVVSGGYRDDRDYGDLIIYTG ?
-0.000463

Thanks! And HMGIAKYRQVTEWIQNRIATGELNRGDQIESENDISRTFGISRQTVRHALGLLEQQGILTRIQGRGTFVRD ?
-0.661

* * *

assay: soluble fraction after stress (log2 fold change); higher = more stays soluble; pooled small domains, quantitative proteomics; settings: stress: 50 degC
value_type: soluble fraction (log2)
Respond numerically, and do not add a unit to the figure.

Worked set:
Need soluble fraction (log2), item HMSVTSIEGRVVYDENANKIGIAKQVGIDSTQSMVLVLTKNDGTEGSISWNNIKKIGEIILLGN
-0.369

Thanks! And HMREVPHGEYEVKIEKLELVESKAGDPMVTVWFKVLAGDYKGSMIFMNQVITKGFQIHIMNEFLR ?
-0.256

Thanks! And HMGVGVPVTLLLEKLGEDTLSAQQIMERLGLKSRASFRKVYLVPALEQKLIEMEFPDKPNSSKQRYRR ?
-0.853

Shift focus to the following entry.
Need soluble fraction (log2), item HMSDILALMPGTIKQILVAPGDSVKRGQTVIIMESMKMELTIAAHRDGVVKRIPVEQGGQVEKGMRLLELE
0.256

* * *

soluble fraction (log2) reference
assay: soluble fraction after stress (log2 fold change); higher = more stays soluble; pooled small domains, quantitative proteomics; conditions: stress: 50 degC
Respond numerically, and do not add a unit to the figure.

Need soluble fraction (log2), item HMIDENILSEEIKHYIETNNYAKDDKLPSERSLASLFNVSRALVRKSLISLVDVNYLYVKDKSGYYING
-0.0735

Thanks! And HMKITTKNYFKAIAEVGVENLPAALKKSHDLIEERTSKGADWSVYEHDAEVRRVFDLTFEKLFEFIDQ ?
-0.363

Thanks! And HMPNDYRKKLEILAKEKGAEYLHTMLTEVDPKSALQIHTNNIKRTIRALEFYHQTGMKISEHNEAEREK ?
0.0272

Thanks! And HMETGFADTLRKFRKEADMTQEKLAEALGVTTGAVYKWENGRSTPEVRLLVEMADLFGTSVDALLDYKVR ?
-0.622

Thanks! And HMISDAEWTIMKALWQSEDKKMTLKEIAEAVADSGWSYTTVRTMVGRLVEKEAIEADESHPRNFRYSAA ?
-1.23

Further cases:
Need soluble fraction (log2), item HMKRRSVIVSVVRAQVRQSADEAAAVVFEAEKNVSLDYLETMPGGWVKVRHRDGQTGFVRVNQIWG
-0.807

Thanks! And HMAEWLFDARKIPDEVMNYLRRIAVQAIEEKHYSPELVADLLGISRSSIYDWLNWYRNGGEEDLDTRKA ?
-0.613

Thanks! And HMPLPLYVQIKESLRGQIFDGTYGEHERLPSENDLMSSFGVSRITVRQALSDLEKEELIFKVPGKGAFVSR ?
-1.32

Thanks! And HMVSGSPTVDILMQRGLEYQQQENLEAARDAFDRAINLKPDYAEAWNRRAVLFFNEGKYDEAIADLETAIT ?
0.077

Thanks! And HMIAVLEEGSRFRAINDISGKPFGPEMIIKNGQVIAAGKKILTKPKKLIGKKEGTKFNISGKEYVIKDI ?
-0.614

Thanks! And HMQKIENYDQFVQAFKRLSGLDLKLYKENQMKRRINNFINNHGFKENYDQFFQAITGNKELYNAFFKHLTI ?
-0.172

Thanks! And HMQMGLNEAYRVLHVSPDAPWREVQSAYKERMAKSHPDKVSHLGEELQEKAKELTVEINKAYNTIKRYKK ?
0.194

Thanks! And HMTTELDTTAITPIIQKVLKANPDVVAKYKAGQQQVIGFLMGQVMRELSTKPNPKELQSLIVAQLQQA ?
0.0755

Thanks! And HMTSAHEKAFDLFDGGKLSEKALLIAVGAERSGFELAGDLRLRTLTAFEDGRLSEDAMIKLL ?
-0.385

Thanks! And HMPELSPEERAIIETLQKNNDLQVNIIAIKTGMDMGSLSAVLFDLEMKGLVKLLAGGMYHLI ?
-0.148

Thanks! And HMNSIQEQIEKYVYSLAPVTIERYESLKNGDIEDIEFEKLRKSISSKIINEKIDNKKQVAILSHLKKMYSD ?
0.0107

Thanks! And HMQAKQVAIPDVANYSVTDAIKKLQDAGFIVSDEQREEANETVSEGKVSRTSPAAGSIRKEGTEIILYKSL ?
0.198

Cited source: the domain aggregation screens of Martell et al. (2025)
